- Protocol: Water absorption of Form XVIII, 7 days at 30° C. under humidity
- Type: physicochemical
- Experimental Context: Initial
Counter-ions that a name gives are not always drawn.
Assay Metric: Water content (by KF) (%)
One number for each entry, in %.

Q: Determine from records and report Water content (by KF) for O=C1Cc2cc(CCN3CCN(c4nsc5ccccc45)CC3)c(Cl)cc2N1 [Form XVIII, ziprasidone mesylate]
Ans: 2

====

- Protocol: Water absorption of Form XVIII, 7 days at 30° C. under humidity
- Assay type: physicochemical
- Experimental Context: 100% RH, 7 days at 30° C.
Structures can show the parent of a compound that is named as a salt.
Assay Metric: Water content (by KF) (%)
Answers are plain numbers, in %.

Q: Kindly indicate its recorded Water content (by KF). Item: O=C1Cc2cc(CCN3CCN(c4nsc5ccccc45)CC3)c(Cl)cc2N1 [Form XVIII, ziprasidone mesylate]
Ans: 9.1

====

- Protocol: Water absorption of Form XVIII, 7 days at 30° C. under humidity
- Assay type: physicochemical
- Experimental Context: 80% RH, 7 days at 30° C.
Where a name gives a salt, the structure may show the parent alone.
Assay Metric: Water content (by KF) (%)
One number for each entry, in %.

Q: Supply reported Water content (by KF) belonging to this molecule: O=C1Cc2cc(CCN3CCN(c4nsc5ccccc45)CC3)c(Cl)cc2N1 [Form XVIII, ziprasidone mesylate]
Ans: 8.2

====

- Protocol: Water absorption of Form IX after exposure for 10 days to 100% relative humidity at room temperature
- Format: physicochemical
- Experimental Context: 100% RH at RT, 10 days
Counter-ions that a name gives are not always drawn.
Assay Metric: water content (by Karl Fisher) (%)
Numbers only, in %.

Q: Quickly give me recorded water content (by Karl Fisher) for O=C1Cc2cc(CCN3CCN(c4nsc5ccccc45)CC3)c(Cl)cc2N1 [Form IX, ziprasidone mesylate]
Ans: 5
